// reported Rat microsome % 60 min per item
- Assay name: Metabolic stability in rat liver microsomes (in vitro t1/2)
- Type: in vitro ADME
- Protocol conditions: rat liver microsomes 0.5 mg/mL, 2 μM compound, % remaining at 60 min
Dear colleague, please send the value followed by its unit.

> print(dat)
                           smiles.structure  result.value
1  CC(C)(OCc1cc(-c2cccc(OC3CC3)c2)n(-c2ccccc2Cl)n1)C(=O)O           94%
2  CCn1ncc2ccc(-c3cc(COC(C)(C)C(=O)O)nn3-c3ccccc3N3CCCC3)cc21           69%

As a next step, examine the molecule that follows.
Rat microsome % 60 min lookup needed for `COc1cc(OC)cc(-c2cc(COC(C)(C)C(=O)O)nn2Cc2ccccc2Cl)c1` , thanks.
73%

Data origin: patent US11292767B2
